assay: Brain drug concentration by different routes of administration; format: in vivo, C57BL/6 mice; conditions: C57BL/6, mouse, brain; 10 mg/kg (PO), time 30 mins
outcome measure: concentration at 30 min (µg/mL)
Just the number in µg/mL, nothing appended.

[ask] Name the recorded concentration at 30 min for Cc1ccc(C[n+]2[cH-]/c(=N\C(=O)Nc3ccccc3)on2)cc1 [Example 3] .
[reply] 0.15

###

test: Brain drug concentration by different routes of administration; assay type: in vivo, C57BL/6 mice; conditions: C57BL/6, mouse, brain; 10 mg/kg (PO), time 120 mins
outcome measure: concentration at 120 min (ng/mL)
Just the number in ng/mL, nothing appended.

[ask] Name the recorded concentration at 120 min for `Cc1ccc(C[n+]2[cH-]/c(=N\C(=O)Nc3ccccc3)on2)cc1` .
[reply] 165

###

assay: Brain drug concentration by different routes of administration; format: in vivo, C57BL/6 mice; details: C57BL/6, mouse, brain, intraperitoneal; 10 mg/kg (IP), time 240 mins
outcome measure: concentration at 240 min (ng/mL)
Just the number in ng/mL, nothing appended.

[ask] Name the recorded concentration at 240 min for `Cc1ccc(C[n+]2[cH-]/c(=N\C(=O)Nc3ccccc3)on2)cc1` .
[reply] 143

###

assay: Brain drug concentration by different routes of administration; type: in vivo, C57BL/6 mice; conditions: C57BL/6, mouse, brain; 10 mg/kg (PO), time 5 mins
outcome measure: concentration at 5 min
Answer by giving the amount and then stating its unit.

[ask] Name the recorded concentration at 5 min for `Cc1ccc(C[n+]2[cH-]/c(=N\C(=O)Nc3ccccc3)on2)cc1` .
[reply] 418 ng/mL

###

Experiment: Plasma drug concentration by different routes of administration
Assay type: in vivo, C57BL/6 mice
Conditions: C57BL/6, mouse, plasma; 30 mg/kg (PO), time 480 mins
Procedure: The following materials and methods are provided to facilitate the practice of Example 9, in which drug concentration in certain biological samples were assessed using different routes of administration. Parameters Used in Dosing and Drug Administration of the Compound of Example 3: Adult C57BL/6 mice (preferred 16 weeks old). Three mice per time point. If all three routes are conducted in same day, one group of pre-dose is efficient. […]
outcome measure: concentration at 480 min (ng/mL)
Just the number in ng/mL, nothing appended.

[ask] Name the recorded concentration at 480 min for `Cc1ccc(C[n+]2[cH-]/c(=N\C(=O)Nc3ccccc3)on2)cc1` .
[reply] 13.4

###

assay: Brain drug concentration by different routes of administration; assay type: in vivo, C57BL/6 mice; details: C57BL/6, mouse, brain, intraperitoneal; 10 mg/kg (IP), time 5 mins
outcome measure: concentration at 5 min
Answer by giving the amount and then stating its unit.

[ask] Name the recorded concentration at 5 min for `Cc1ccc(C[n+]2[cH-]/c(=N\C(=O)Nc3ccccc3)on2)cc1` .
[reply] 1.46 µg/mL

###

assay: Plasma drug concentration by different routes of administration; assay type: in vivo, C57BL/6 mice; settings: C57BL/6, mouse, plasma; 10 mg/kg (PO), time 120 mins
outcome measure: concentration at 120 min (ng/mL)
Just the number in ng/mL, nothing appended.

[ask] Name the recorded concentration at 120 min for Cc1ccc(C[n+]2[cH-]/c(=N\C(=O)Nc3ccccc3)on2)cc1 [Example 3] .
[reply] 17.6
